experiment: in vitro; settings: bovine
outcome measure: CC50

// sample C[C@H]1CC[C@H]2C(C)(C)C=CC[C@]23Oc2c(c(O)cc4c2CNC4=O)C[C@]13C [Compound (41a)] , its CC50 was 5 µg/mL

What the record says about C[C@H]1CC[C@H]2C(C)(C)[C@@H](O)CC[C@]23Oc2c(c(O)cc4c2CNC4)C[C@]13C [Compound (34a)] : CC50 is > 10 µg/mL

The reported CC50 of the compound C[C@H]1CC[C@H]2C(C)(C)[C@@H](OC(=O)c3cccnc3)CC[C@]23Oc2c(c(O)cc4c2CNC4=O)C[C@]13C [Compound (35a)] was 10 µg/mL

Looking up C[C@H]1CC[C@H]2C(C)(C)C(=NO)CC[C@]23Oc2c(c(OP(=O)(O)O)cc4c2CNC4=O)C[C@]13C.[Na] [Compound (64), monosodium salt] , I see its CC50 listed as > 10 µg/mL

CC50 for COC1NC(=O)c2cc(O)c3c(c21)O[C@@]12CC[C@H](O)C(C)(C)[C@@H]1CC[C@H](C)[C@@]2(C)C3 (stereo partly shown) [Compound (30b)] is 20 µg/mL

So, CC(=O)N[C@H]1CC[C@@]23Oc4c(c(O)cc5c4CNC5=O)C[C@]2(C)[C@@H](C)CC[C@H]3C1(C)C [Compound (47b)] ? Its CC50 was > 10 µg/mL

get_value(item= C[C@H]1CC[C@H]2C(C)(C)[C@H](O)CC[C@]23Oc2c(c(OP(=O)(O)O)cc4c2CNC4=O)C[C@]13C.[Na] [Compound (59b), monosodium salt] , readout=CC50) returns > 10 µg/mL

The compound listed as C[C@H]1CC[C@H]2C(C)(C)C(=NO)CC[C@]23Oc2c(c(O)cc4c2CNC4=O)C[C@]13C [Compound (51a)] shows CC50 equal to > 10 µg/mL

response.value for CC(=O)O[C@@H]1C(=NO)C[C@@]23Oc4c(c(O)cc5c4CNC5=O)C[C@]2(C)[C@@H](C)CC[C@H]3C1(C)C [Compound (53b)] (field: CC50) = > 10 µg/mL

CC50 recorded for this compound, C[C@H]1CC[C@H]2C(C)(C)[C@H]3O[C@H]3C[C@]23Oc2c(c(O)cc4c2CNC4=O)C[C@]13C [Compound (43a)] , is 40 µg/mL

Entry C[C@H]1CC[C@H]2C(C)(C)[C@@H](O)CC[C@]23Oc2c(c(O)cc4c2CN(S(C)(=O)=O)C4=O)C[C@]13C [Compound (28e)] — recorded CC50 = > 10 µg/mL

Value of CC50 reported for the compound C[C@H]1CC[C@H]2C(C)(C)[C@@H](NS(C)(=O)=O)CC[C@]23Oc2c(c(O)cc4c2CNC4=O)C[C@]13C [Compound (47c)] is > 10 µg/mL

Short answer for C[C@H]1CC[C@H]2C(C)(C)CCC[C@]23Oc2c(c(O)cc4c2CNC4=O)C[C@]13C : CC50 was 5 µg/mL

// CC50 value for C[C@H]1CC[C@H]2C(C)(C)[C@@H](N)CC[C@]23Oc2c(c(O)cc4c2CNC4=O)C[C@]13C [Compound (47a)] : > 10 µg/mL

C[C@H]1CC[C@H]2C(C)(C)[C@@H](O)[C@@H](OS(=O)(=O)c3ccccc3)C[C@]23Oc2c(c(O)cc4c2CNC4=O)C[C@]13C [Compound (50e)] yielded CC50 of > 10 µg/mL

So for C[C@H]1CC[C@H]2C(C)(C)[C@@H](O)[C@@H](OC(=O)c3ccccc3)C[C@]23Oc2c(c(O)cc4c2CNC4=O)C[C@]13C [Compound (50c)] , the logged CC50 turned out to be 5 to 10 µg/mL

The measured CC50 associated with C[C@H]1CC[C@H]2C(C)(C)[C@@H](O)[C@@H](OS(C)(=O)=O)C[C@]23Oc2c(c(O)cc4c2CNC4=O)C[C@]13C [Compound (50d)] reads > 10 µg/mL

Measured CC50 of C[C@H]1CC[C@H]2C(C)(C)[C@@H](O)CC[C@]23Oc2c(c(O)cc4c2CN(C)C4=O)C[C@]13C [Compound (28a)] : 10 to 20 µg/mL

Value of CC50 reported for the compound C[C@H]1CC[C@H]2C(C)(C)[C@@H](O)CC[C@]23Oc2c(c(O)cc4c2C(O)NC4=O)C[C@]13C (stereo partly shown) [Compound (30a)] is > 40 µg/mL
